- assay_target: T1, PUF4 RNA-binding domain (Saccharomyces cerevisiae, UniProt P25339 537-888)
- T1 sequence: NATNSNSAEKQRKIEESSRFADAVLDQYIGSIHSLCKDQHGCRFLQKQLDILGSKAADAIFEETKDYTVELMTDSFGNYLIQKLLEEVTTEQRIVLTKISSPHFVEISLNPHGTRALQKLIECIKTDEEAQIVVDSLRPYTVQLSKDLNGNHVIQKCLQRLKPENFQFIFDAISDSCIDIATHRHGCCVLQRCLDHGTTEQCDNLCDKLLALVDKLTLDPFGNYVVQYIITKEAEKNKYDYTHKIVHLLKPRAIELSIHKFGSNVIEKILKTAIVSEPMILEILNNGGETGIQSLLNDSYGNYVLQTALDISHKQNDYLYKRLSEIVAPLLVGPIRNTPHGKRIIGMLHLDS
- assay_comment: Mg; RNA-MaP; 20 mM Na-HEPES pH 7.4, 30 mM KOAc, 0.75 mM MgCl2, 0.1% Tween-20, 5% glycerol, 0.1 mg/mL BSA, 2 mM DTT; 25 C; 0.0125-409.6 nM protein
- experimental_context: tags: N-His6-TEV cleaved; C-SNAP kept, Cy3B-labelled; label: tethered on chip by stalled RNA polymerase
Mark each entry Met if its Kd sits below 40 nM, and Not met for all others.

[
  {
    "binder": "Ib_S4_P4E.1_K4.1_C4.1_H4.1_[G2T]_[A4G]_A4.1_F4.1_T4.1 (ssRNA) RNA: UUUGACAACUGAUCGUUCUUUCUUUUGUAUUAUUCUUUCUCGAUCAGUUGUCUUU",
    "label_class": "Met"
  },
  {
    "binder": "ACAAACUCACACUUAUUAUGACAAAC (ssRNA) [Id_ii_S3_P5E.4_K5.3_C5.2_[C-2T]_[T-1C]_H5.3_A5.1_F5.1_T5.2_[A12G]]",
    "label_class": "Not met"
  },
  {
    "binder": "UCUCUUUGUACCAAUCUCUCUU (ssRNA) [Ic_S1_P5E.1_K5.1_C5.1_H5.1_A5.1_[T5C]_[T6C]_F5.1_[T8A]_[A10C]_T5.1]",
    "label_class": "Not met"
  }
]

Q) Please indicate whether the reported Kd of UCUCUUUGUAUUAUCAUCUCUU (ssRNA) [Ia_S1_P5E.1_K5.1_C5.1_H5.1_A5.1_F5.1_[T9C]_T5.1] is strictly below 40 nM.
A) Met

Q) Item ACAAACAGUAUAUUAUUAGAACAAAC (ssRNA) [Id_ii_S3_P5E.3_K5.2_C5.2_[C-2A]_[T-1G]_H5.2_A5.1_F5.1_T5.2_[T11G]] : Kd beneath 40 nM, strictly?
A) Met
